The values you see were collected from the NIST ThermoML archive (doi:10.1021/je900134z).

Provide the recorded mass density for the entries that follow.
settings: 303.15 K; 101.33 kPa; Liquid
Answers are plain numbers, in kg/m3.

### Prompt Can you look up the measured mass density of CCn1cc[n+](C)c1.CO[PH](=O)[O-] [1-ethyl-3-methylimidazolium methyl phosphonate] for me?
### Response 1188.5

### Prompt Can you look up the measured mass density of "CCCCn1cc[n+](CCCC)c1.O=S(=O)([N-]S(=O)(=O)C(F)(F)F)C(F)(F)F" for me?
### Response 1335.51

### Prompt Can you look up the measured mass density of CCn1cc[n+](C)c1.CS(=O)(=O)[O-] [1-ethyl-3-methylimidazolium methanesulfonate] for me?
### Response 1238.15

***
### Prompt Can you look up the measured mass density of CCCCCCCCOS(=O)(=O)[O-].CCn1cc[n+](C)c1 [1-ethyl-3-methylimidazolium octyl sulfate] for me?
### Response 1090.83

###

Provide the recorded refractive index for the entries that follow.
assay: refractive index (Na D-line) (dimensionless); conditions: 293.15 K; 101.33 kPa; Liquid
Numbers only.

### Prompt Can you look up the measured refractive index of CCn1cc[n+](C)c1.CS(=O)(=O)[O-] [1-ethyl-3-methylimidazolium methanesulfonate] for me?
### Response 1.4996

### Prompt Can you look up the measured refractive index of "CCCCn1cc[n+](CCCC)c1.O=S(=O)([N-]S(=O)(=O)C(F)(F)F)C(F)(F)F" for me?
### Response 1.4347

### Prompt Can you look up the measured refractive index of CCn1cc[n+](C)c1.CO[PH](=O)[O-] [1-ethyl-3-methylimidazolium methyl phosphonate] for me?
### Response 1.4935

***
### Prompt Can you look up the measured refractive index of CCCCCCCCOS(=O)(=O)[O-].CCn1cc[n+](C)c1 [1-ethyl-3-methylimidazolium octyl sulfate] for me?
### Response 1.4766

###

details: 298.15 K; 101.33 kPa; Liquid
± gives the expanded uncertainty stated by the source.
Provide the recorded mass density for the entries that follow.
Numeric answer plus unit only.

### Prompt Can you look up the measured mass density of CCn1cc[n+](C)c1.CO[PH](=O)[O-] [1-ethyl-3-methylimidazolium methyl phosphonate] for me?
### Response 1191.82 ± 2.1 kg/m3

For each of the compounds below, note its mass density.
1. CCn1cc[n+](C)c1.CS(=O)(=O)[O-] [1-ethyl-3-methylimidazolium methanesulfonate]
2. CCCCCCCCOS(=O)(=O)[O-].CCn1cc[n+](C)c1 [1-ethyl-3-methylimidazolium octyl sulfate]
3. CCCCn1cc[n+](CCCC)c1.O=S(=O)([N-]S(=O)(=O)C(F)(F)F)C(F)(F)F

### Response
1241.52 ± 1.5 kg/m3
1094.15 ± 1.1 kg/m3
1340.01 ± 1.9 kg/m3

###

Provide the recorded mass density for the entries that follow.
conditions: 283.15 K; 101.33 kPa; Liquid
Numbers only, in kg/m3.

### Prompt Can you look up the measured mass density of "CCCCn1cc[n+](CCCC)c1.O=S(=O)([N-]S(=O)(=O)C(F)(F)F)C(F)(F)F" for me?
### Response 1353.51

For each of the compounds below, note its mass density.
1. CCn1cc[n+](C)c1.CO[PH](=O)[O-] [1-ethyl-3-methylimidazolium methyl phosphonate]
2. CCn1cc[n+](C)c1.CS(=O)(=O)[O-] [1-ethyl-3-methylimidazolium methanesulfonate]
3. CCCCCCCCOS(=O)(=O)[O-].CCn1cc[n+](C)c1 [1-ethyl-3-methylimidazolium octyl sulfate]

### Response
1: 1201.82; 2: 1252.04; 3: 1104.34

###

assay: refractive index (Na D-line) (dimensionless); details: 303.15 K; 101.33 kPa; Liquid
Numbers after ± are expanded uncertainties.
Property measured: refractive index

Some solved entries appear below for comparison.
### Prompt Can you look up the measured refractive index of CCn1cc[n+](C)c1.CS(=O)(=O)[O-] [1-ethyl-3-methylimidazolium methanesulfonate] for me?
### Response 1.4977 ± 0.0015

### Prompt Can you look up the measured refractive index of CCCCCCCCOS(=O)(=O)[O-].CCn1cc[n+](C)c1 [1-ethyl-3-methylimidazolium octyl sulfate] for me?
### Response 1.4737 ± 0.0015

### Prompt Can you look up the measured refractive index of "CCCCn1cc[n+](CCCC)c1.O=S(=O)([N-]S(=O)(=O)C(F)(F)F)C(F)(F)F" for me?
### Response 1.4324 ± 0.0015

Please turn your attention to the following entry.
### Prompt Can you look up the measured refractive index of CCn1cc[n+](C)c1.CO[PH](=O)[O-] [1-ethyl-3-methylimidazolium methyl phosphonate] for me?
### Response 1.4928 ± 0.0016

###

details: 333.15 K; 101.33 kPa; Liquid
Provide the recorded mass density for the entries that follow.
Answers are plain numbers, in kg/m3.

### Prompt Can you look up the measured mass density of CCCCCCCCOS(=O)(=O)[O-].CCn1cc[n+](C)c1 [1-ethyl-3-methylimidazolium octyl sulfate] for me?
### Response 1071.34

### Prompt Can you look up the measured mass density of CCn1cc[n+](C)c1.CS(=O)(=O)[O-] [1-ethyl-3-methylimidazolium methanesulfonate] for me?
### Response 1218

### Prompt Can you look up the measured mass density of "CCCCn1cc[n+](CCCC)c1.O=S(=O)([N-]S(=O)(=O)C(F)(F)F)C(F)(F)F" for me?
### Response 1308.77

Please turn your attention to the following entry.
### Prompt Can you look up the measured mass density of CCn1cc[n+](C)c1.CO[PH](=O)[O-] [1-ethyl-3-methylimidazolium methyl phosphonate] for me?
### Response 1168.89

###

Provide the recorded mass density for the entries that follow.
settings: 273.15 K; 101.33 kPa; Liquid
Give bare numbers, in kg/m3.

Some solved entries appear below for comparison.
### Prompt Can you look up the measured mass density of CCn1cc[n+](C)c1.CS(=O)(=O)[O-] [1-ethyl-3-methylimidazolium methanesulfonate] for me?
### Response 1259.14

### Prompt Can you look up the measured mass density of CCCCCCCCOS(=O)(=O)[O-].CCn1cc[n+](C)c1 [1-ethyl-3-methylimidazolium octyl sulfate] for me?
### Response 1111.56

### Prompt Can you look up the measured mass density of CCn1cc[n+](C)c1.CO[PH](=O)[O-] [1-ethyl-3-methylimidazolium methyl phosphonate] for me?
### Response 1208.75

Please turn your attention to the following entry.
### Prompt Can you look up the measured mass density of "CCCCn1cc[n+](CCCC)c1.O=S(=O)([N-]S(=O)(=O)C(F)(F)F)C(F)(F)F" for me?
### Response 1362.73

###

settings: 313.15 K; 101.33 kPa; Liquid; Surface Light Scattering
Provide the recorded viscosity for the entries that follow.
Give bare numbers, in mPa·s.

For each of the compounds below, note its viscosity.
1. CCn1cc[n+](C)c1.CS(=O)(=O)[O-] [1-ethyl-3-methylimidazolium methanesulfonate]
2. CCCCn1cc[n+](CCCC)c1.O=S(=O)([N-]S(=O)(=O)C(F)(F)F)C(F)(F)F
3. CCCCCCCCOS(=O)(=O)[O-].CCn1cc[n+](C)c1 [1-ethyl-3-methylimidazolium octyl sulfate]
4. CCn1cc[n+](C)c1.CO[PH](=O)[O-] [1-ethyl-3-methylimidazolium methyl phosphonate]

### Response
[69, 37.9, 208.1, 53.9]

###

conditions: 328.15 K; 101.33 kPa; Liquid
Provide the recorded mass density for the entries that follow.
Give bare numbers, in kg/m3.

Some solved entries appear below for comparison.
### Prompt Can you look up the measured mass density of CCCCCCCCOS(=O)(=O)[O-].CCn1cc[n+](C)c1 [1-ethyl-3-methylimidazolium octyl sulfate] for me?
### Response 1074.55

### Prompt Can you look up the measured mass density of CCn1cc[n+](C)c1.CS(=O)(=O)[O-] [1-ethyl-3-methylimidazolium methanesulfonate] for me?
### Response 1221.33

### Prompt Can you look up the measured mass density of CCn1cc[n+](C)c1.CO[PH](=O)[O-] [1-ethyl-3-methylimidazolium methyl phosphonate] for me?
### Response 1172.14

***
### Prompt Can you look up the measured mass density of "CCCCn1cc[n+](CCCC)c1.O=S(=O)([N-]S(=O)(=O)C(F)(F)F)C(F)(F)F" for me?
### Response 1313.2

###

Provide the recorded viscosity for the entries that follow.
conditions: 278.15 K; 101.33 kPa; Liquid; Surface Light Scattering
Numbers only, in mPa·s.

Some solved entries appear below for comparison.
### Prompt Can you look up the measured viscosity of CCn1cc[n+](C)c1.CO[PH](=O)[O-] [1-ethyl-3-methylimidazolium methyl phosphonate] for me?
### Response 379.6

### Prompt Can you look up the measured viscosity of CCCCCCCCOS(=O)(=O)[O-].CCn1cc[n+](C)c1 [1-ethyl-3-methylimidazolium octyl sulfate] for me?
### Response 2429.9

### Prompt Can you look up the measured viscosity of "CCCCn1cc[n+](CCCC)c1.O=S(=O)([N-]S(=O)(=O)C(F)(F)F)C(F)(F)F" for me?
### Response 203

Please turn your attention to the following entry.
### Prompt Can you look up the measured viscosity of CCn1cc[n+](C)c1.CS(=O)(=O)[O-] [1-ethyl-3-methylimidazolium methanesulfonate] for me?
### Response 676.3
